Catalogue of IC50 readings, one per entry.
EXPERIMENTAL_TARGET: Tyrosine-protein phosphatase non-receptor type 1 (Homo sapiens, UniProt P18031)
Sequence (P18031 whole entry): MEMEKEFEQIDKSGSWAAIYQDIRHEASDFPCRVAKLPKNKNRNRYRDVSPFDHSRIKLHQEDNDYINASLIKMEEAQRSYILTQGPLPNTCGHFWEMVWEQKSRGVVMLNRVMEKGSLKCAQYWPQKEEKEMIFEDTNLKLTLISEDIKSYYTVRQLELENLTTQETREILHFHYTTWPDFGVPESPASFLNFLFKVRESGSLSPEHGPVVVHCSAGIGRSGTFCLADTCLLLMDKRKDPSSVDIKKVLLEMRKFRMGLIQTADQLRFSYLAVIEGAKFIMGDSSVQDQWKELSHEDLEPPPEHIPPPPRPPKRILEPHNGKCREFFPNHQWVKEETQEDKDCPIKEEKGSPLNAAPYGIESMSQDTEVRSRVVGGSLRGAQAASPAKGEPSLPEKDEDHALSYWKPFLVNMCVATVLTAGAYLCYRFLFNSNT
ASSAY_PROCEDURE: Inhibition of recombinant human PTP1B using pNPP as substrate incubated for 10 mins prior to substrate addition measured after 30 mins by microplate reader analysis
PARAMETER: IC50 (µM)

> print(dat)
                           substance.smiles  unit.text  operator.symbol  value.reported
1  CC(C)=CCC[C@](C)(NC(=O)N[C@@](C)(CCC=C(C)C)[C@H]1CC=C(C)CC1)[C@H]1CC=C(C)CC1         µM                =             1.9
2  CC1=C[C@H]2[C@@H](CC1)[C@@](C)(N=C=S)CC[C@H]2C(C)C         µM                =              17
3       CC(C)=CCC[C@](C)(N)[C@H]1CC=C(C)CC1         µM                >              45
